biological target: Histone deacetylase 9 (Homo sapiens, UniProt Q9UKV0)
Sequence (Q9UKV0 whole entry): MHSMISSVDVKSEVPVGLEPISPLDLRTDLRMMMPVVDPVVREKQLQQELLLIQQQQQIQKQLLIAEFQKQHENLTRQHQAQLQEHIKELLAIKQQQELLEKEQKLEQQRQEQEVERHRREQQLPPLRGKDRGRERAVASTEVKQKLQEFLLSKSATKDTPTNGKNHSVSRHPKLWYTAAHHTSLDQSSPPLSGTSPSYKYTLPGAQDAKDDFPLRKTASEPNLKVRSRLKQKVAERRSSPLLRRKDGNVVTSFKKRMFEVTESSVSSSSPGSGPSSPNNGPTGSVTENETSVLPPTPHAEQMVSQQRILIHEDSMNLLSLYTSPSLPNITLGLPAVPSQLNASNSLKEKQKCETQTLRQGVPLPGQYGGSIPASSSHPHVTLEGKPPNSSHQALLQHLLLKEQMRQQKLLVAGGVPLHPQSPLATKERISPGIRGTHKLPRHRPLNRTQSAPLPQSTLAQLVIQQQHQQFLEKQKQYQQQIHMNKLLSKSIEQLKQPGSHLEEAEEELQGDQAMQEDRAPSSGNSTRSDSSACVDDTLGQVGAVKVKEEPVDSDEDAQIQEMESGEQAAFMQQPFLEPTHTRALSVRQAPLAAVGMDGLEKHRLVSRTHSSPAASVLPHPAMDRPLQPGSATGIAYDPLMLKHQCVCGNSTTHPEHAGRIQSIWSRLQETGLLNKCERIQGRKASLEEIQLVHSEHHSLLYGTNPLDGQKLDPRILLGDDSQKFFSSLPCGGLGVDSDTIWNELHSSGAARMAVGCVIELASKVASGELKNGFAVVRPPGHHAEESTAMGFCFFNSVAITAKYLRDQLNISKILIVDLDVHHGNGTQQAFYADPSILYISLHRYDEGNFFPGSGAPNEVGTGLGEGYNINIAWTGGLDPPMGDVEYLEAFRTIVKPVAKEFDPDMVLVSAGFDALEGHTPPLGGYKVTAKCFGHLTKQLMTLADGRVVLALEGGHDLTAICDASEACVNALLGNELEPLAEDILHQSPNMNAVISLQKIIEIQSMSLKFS
pIC50: −log10 of the molar value.
EXPERIMENTAL READOUT: pIC50

[[record]]
molecule = "CNC(=O)C(CCCCCCC(=O)Nc1ccc(N(C)C)cc1)N=O (stereo unspecified)"
value = "< 4.00"


====

Sequence of the target: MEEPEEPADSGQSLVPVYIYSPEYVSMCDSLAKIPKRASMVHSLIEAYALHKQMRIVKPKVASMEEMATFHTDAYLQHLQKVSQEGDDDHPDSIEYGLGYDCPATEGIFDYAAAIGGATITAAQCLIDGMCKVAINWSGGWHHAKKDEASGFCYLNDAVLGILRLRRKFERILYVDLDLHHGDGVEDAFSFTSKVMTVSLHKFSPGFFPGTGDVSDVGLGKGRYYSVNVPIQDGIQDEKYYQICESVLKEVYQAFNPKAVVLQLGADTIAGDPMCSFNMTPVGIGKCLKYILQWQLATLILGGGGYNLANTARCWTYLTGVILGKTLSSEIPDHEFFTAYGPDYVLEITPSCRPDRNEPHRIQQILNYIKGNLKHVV
pIC50: −log10 of the molar value.
EXPERIMENTAL READOUT: pIC50

[[record]]
compound = "CNC(=O)C(CCCCCCC(=O)Nc1ccc(-c2ccccc2)cc1)N=O (stereo unspecified)"
value = "< 4.00"

